assay_method_text: Half life in rat at 25 mg/kg, po
Type: ADME, organism-based
Parameters: dose 25 mg/kg, route oral
cond: in vivo
parameter: half-life (h)
The answer is to be given in h; state only the numeric part.

Cc1cccc(C)c1-c1cc(C)c2nc(Nc3ccc(OCCN4CCCC4)cc3)nnc2c1 5.6

Q: Identify the reported half-life for the following entry. Cc1cc(-c2c(Cl)cccc2Cl)cc2nnc(Nc3ccc(OCCN4CCCC4)cc3)nc12
Result: 4.6

###

assay_method_text: Clearance in rat at 25 mg/kg, po
Assay type: ADME, organism-based
Parameters: dose 25 mg/kg, route oral
cond: in vivo
parameter: CL/F (mL/min/kg)
Kindly answer with a numeric value in mL/min/kg, unit omitted.

Cc1cc(-c2c(Cl)cccc2Cl)cc2nnc(Nc3ccc(OCCN4CCCC4)cc3)nc12 12.7

Now take the following molecule into account.
Q: Return CL/F for the following molecule: Cc1cccc(C)c1-c1cc(C)c2nc(Nc3ccc(OCCN4CCCC4)cc3)nnc2c1
Result: 9.2

Origin of measurements: ChEMBL document CHEMBL1143794
